Target: T1, human FOLR1-HIS (Homo sapiens, UniProt P15328)
T1 construct: HIS
T1 sequence (P15328 25-234): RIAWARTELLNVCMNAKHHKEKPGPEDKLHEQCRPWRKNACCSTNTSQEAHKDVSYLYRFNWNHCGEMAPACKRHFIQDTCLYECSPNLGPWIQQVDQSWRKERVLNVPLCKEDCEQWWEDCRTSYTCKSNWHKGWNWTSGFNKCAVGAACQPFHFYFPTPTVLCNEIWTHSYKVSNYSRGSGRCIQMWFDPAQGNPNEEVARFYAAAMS
Experiment: Biacore kinetics (surface plasmon resonance)
Type: binding
Conditions: humanized 6D1 (2060) antibodies, Table 9
property: Biacore kinetics ka (M⁻¹ s⁻¹)
State the answer as a number, implicitly in M⁻¹ s⁻¹.

I would be grateful if you could share the reported Biacore kinetics ka for SRP2060-E05: affinity-matured humanized 6D1; VH SEQ ID NO 364; VL H6D1-LC4 SEQ ID NO 368 (antibody, V domains shown, Synthetic SRP2060-E05, VH; Synthetic H6D1-LC4, VL) VH: EVQLLESGGGLVQPGGSLRLSCAFSGFSLSTFGMGVGWVRQAPGKGLEWVSHIWWDDDKYYHPALKGRFTVSKDNSKNTVYLQMNSLRAEDTAVYYCGRNHFPHYYGSSHWYFNVWGQGTTVTVSS VL: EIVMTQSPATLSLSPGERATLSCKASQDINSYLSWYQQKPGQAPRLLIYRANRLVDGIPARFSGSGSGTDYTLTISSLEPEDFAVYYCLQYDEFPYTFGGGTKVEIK .
541000

Data origin: patent US10596270B2
